Molecular target: T1, sAPPα (Sigma) (UniProt P05067-4 18-612, limits assumed)
T1 construct: Bought protein; also called Sigma cat. no; S9564
T1 sequence (P05067 other isoform, or with tags, fused parts or gaps limits assumed): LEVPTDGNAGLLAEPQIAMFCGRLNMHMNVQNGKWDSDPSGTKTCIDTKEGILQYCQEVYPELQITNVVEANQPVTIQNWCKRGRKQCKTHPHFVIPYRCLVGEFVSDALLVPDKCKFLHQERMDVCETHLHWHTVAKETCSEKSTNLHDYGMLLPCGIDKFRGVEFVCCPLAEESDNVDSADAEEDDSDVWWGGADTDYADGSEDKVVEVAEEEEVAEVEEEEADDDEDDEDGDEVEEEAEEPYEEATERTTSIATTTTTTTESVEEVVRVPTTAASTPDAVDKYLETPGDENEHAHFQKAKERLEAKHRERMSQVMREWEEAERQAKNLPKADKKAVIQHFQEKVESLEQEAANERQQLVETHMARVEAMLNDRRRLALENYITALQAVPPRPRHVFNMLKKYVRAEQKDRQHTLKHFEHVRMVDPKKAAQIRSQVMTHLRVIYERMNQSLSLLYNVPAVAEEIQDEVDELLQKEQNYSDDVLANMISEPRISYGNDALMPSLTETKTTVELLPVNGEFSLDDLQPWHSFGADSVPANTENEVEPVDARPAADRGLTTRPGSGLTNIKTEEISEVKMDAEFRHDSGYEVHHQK
Assay: dot blot densitometry, antibody 0.2 µg/ml; column sAPPα
# relation between recognition of Aβ(20-42) globulomer and the respective Aβ form listing for each entry below
reported property: relation between recognition of Aβ(20-42) globulomer and the respective Aβ form

{"binder": "monoclonal antibody 5F7 (antibody, V domains shown, Mouse monoclonal antibody from hybridoma, Protein A purified; also called mAb 5F7; ML15-5F7.5B10) VH: QVQLKQSGAELVRPGTSVKMSCKASGYTFTTFYIHWVKQRPGQGLEWIGMIGPGSGNTYYNEMFKDKATLTVDTSSSTAYMQLSSLTSEDSAVYFCARAKSARAAWFAYWGQGTLVTVSA VL: DVLMTQTPLSLPVSLGDQASISCRSSQSVVQSNGNTYLEWYLQKPGQSPKLLIYKVSNRFSGVPDRFSGSGSGTDFTLKISRVEAEDLGVYYCFQGSHVPPTFGGGTKLEIKR", "reading": "> 100"}
{"binder": "monoclonal antibody 7E5 (antibody, V domains shown, Mouse monoclonal antibody from hybridoma; also called ML15-7E5.5E12; hybridoma ATCC PTA-7809) VH: EVKLVESGGGLVQPGGSRKLSCAASGFTFSDYEMVWVRQAPGEGLEWVAYISSGSRTIHYADTVKGRFTISRDNPKNTLFLQMSSLRSEDTAMYYCARTLLRLHFDYWGQGTILTVSS VL: DIVMSQSPSSLAVSVGEKVTMSCRSSQSLFYRSNQKNFLAWYQQKPGQSPKLLIYWASTRESGVPDRFTGSGSGTDFTLTISSVKAEDLAVYYCQQYYSYPWTFGGGTKLEIKR", "reading": "> 1000"}
{"binder": "monoclonal antibody 2F2 (antibody, V domains shown, Mouse monoclonal antibody from hybridoma; also called ML15-2F2.3E12; hybridoma ATCC PTA-7408) VH: QVQLKQSGAELVRPGTSVKMSCKASGYTFTTFYIHWVKQRPGQGLEWIGMIGPGSGNTYYNEMFKDKATLTVDTSSSTAYMQLSSLTSEDSAVYFCARAKSARAAWFAYWGQGTLVTVSA VL: DVLMTQTPLSLPVSLGDQASISCRSSQSVVQSNGNTYLEWYLQKPGQSPKLLIYKVSNRFSGVPDRFSGSGSGTDFTLKISRVEAEDLGVYYCFQGSHVPPTFGGGTKLEIKR", "reading": "> 100"}
{"binder": "monoclonal antibody 10C1 (antibody, V domains shown, Mouse monoclonal antibody from hybridoma; also called ML15-10C1.5C6.3H4; hybridoma ATCC PTA-7810) VH: EVKLVESGGGLVQPGGSRKLSCAASGFTFSDYEMVWVRQAPGKGLEWVAYINSGSGTIHYADTVKGRFTISRDNPKNTLFLQMSSLRSEDTAMYYCARTLLRLHFDYWGQGTILTVSS VL: DIVMSQSPSSLAVSVGEKVTMSCKSSQSLFYSRNQKNFLAWYQQKPGQSPKLLIYWASTGESGVPDRFTGSGSGTDFTLTISSVKAEDLAVYYCQQYFSYPWTFGGGTKLEIKR", "reading": "> 1000"}
{"binder": "monoclonal antibody 7C6 (antibody, V domains shown, Mouse monoclonal antibody from hybridoma; also called ML13-7C6.1D4.4A9.5G8; hybridoma ATCC PTA-7240) VH: EVKLVESGGGLVKPGGSLKLSCAASGFTFSSYAMSWVRQTPAKRLEWVASIHNRGTIFYLDSVKGRFTISRDNVRNTLYLQMSSLRSEDTAIYYCTRGRSNSYAMDYWGQGTSVTVSS VL: DVLVTQSPLSLPVRLGDQASISCRSTQTLVHRNGDTYLEWYLQKPGQSPKSLIYKVSNRFSGVPDRFSGSGSGTDFTLKISRVEAEDLGVYYCFQGSHVPYTFGGGTKLEIKR", "reading": "> 1000"}
{"binder": "monoclonal antibody 6A2 (antibody, V domains shown, Mouse monoclonal antibody from hybridoma; also called ML15-6A2.4B10; hybridoma ATCC PTA-7409) VH: QVQLQQSGAELVRPGTSVKMSCKASGYTFTTFYIHWVRQRPGQGLEWIGMIGPGSGNTYYNEMFKDKATLTVDTSSSTAYMQLSSLTSEDSAVYFCARAKSHRAAWFAYWGQGTLVTVSA VL: DVLMTQTPLSLPVSLGDQASISCRSSQSVVQSNGNTYLEWYLQKPGQSPKLLIYKVSNRFFGVPDRFSGSRSGTDFTLKISRVEAEDLGVYYCFQGSHVPPTFGGGTKLEIKR", "reading": "> 1000"}
{"binder": "monoclonal antibody 4B7 (antibody, V domains shown, Mouse monoclonal antibody from hybridoma; also called ML15-4B7.3A6; hybridoma ATCC PTA-7242) VH: EVKLVESGGGLVQPGGSRKLSCAASGFTFSDYEMVWVRQAPGEGLEWVAYISSGSRTIHYADTVKGRFTISRDNPKNTLFLQMSSLRSEDTAMYYCARTLLRLHFDYWGQGTILTVSS VL: DIVMSQSPSSLAVSVGEKVTMSCRSSQSLFYRSNQKNFLAWYQQKPGQSPKLLIYWASTRESGVPDRFTGSGSGTDFTLTISSVKAEDLAVYYCQQYYSYPWTFGGGTKLEIKR", "reading": "> 1000"}
